Give percent reduction in ELISA signal for every item shown.
Target: Antibody No. 245.1
Assay: peptide blocking ELISA on plate-bound VISTA, peptide 2 ug/mL
Mention the unit after the number when you answer.

>>> valuereported("HLHHGGHQAANTSHD (synthetic overlapping peptide from human VISTA) [Spiked Peptide 14 (HLHHGGHQAANTSHD)]")
"1%"
>>> valuereported("HHHSEHRVHGAMELQ (synthetic overlapping peptide from human VISTA) [Spiked Peptide 25 (HHHSEHRVHGAMELQ)]")
"10%"
>>> valuereported("NTSHDLAQRHGLESA (synthetic overlapping peptide from human VISTA) [Spiked Peptide 16 (NTSHDLAQRHGLESA)]")
"0%"

Here is another binder to look at.
The recorded percent reduction in ELISA signal for entry NFSITMRNLTLLDSG (synthetic overlapping peptide from human VISTA) [Spiked Peptide 20 (NFSITMRNLTLLDSG)] equals 23%
